Let's look at some molecules and their measured selectivity ratio.
Assay: Selectivity ratio of IC50 for human HeLa cells to IC50 for multidrug resistant Plasmodium falciparum NHP1337
Format: ADME, cell-based
Conditions: HeLa cells versus Plasmodium falciparum NHP1337, read-out: Ratio IC50
// response body must contain only the number

| molecule | selectivity ratio |
| --- | --- |
| O=c1cc(-c2ccc(O)c(-c3c(O)cc(O)c4c(=O)cc(-c5ccc(O)cc5)oc34)c2)oc2cc(O)cc(O)c12 | 2.4 |

Task: Could you share which selectivity ratio value was measured for C[C@@H]1O[C@@H](Oc2c(-c3ccc(O)cc3)oc3cc(O)cc(O)c3c2=O)[C@H](OC(=O)/C=C\c2ccc(O)cc2)[C@H](OC(=O)/C=C\c2ccc(O)cc2)[C@H]1O ?
Result: 2.3

Task: Which measured selectivity ratio value corresponds to C[C@@H]1O[C@@H](Oc2c(-c3ccc(O)cc3)oc3cc(O)cc(O)c3c2=O)[C@H](OC(=O)/C=C/c2ccc(O)cc2)[C@H](OC(=O)/C=C/c2ccc(O)cc2)[C@H]1O ?
Result: 2.9

Task: Data request, read-out selectivity ratio, for C[C@@H]1O[C@@H](Oc2c(-c3ccc(O)cc3)oc3cc(O)cc(O)c3c2=O)[C@H](OC(=O)/C=C/c2ccc(O)cc2)[C@H](OC(=O)/C=C\c2ccc(O)cc2)[C@H]1O
Result: 3

Task: Bench note: what selectivity ratio did C[C@@H]1O[C@@H](Oc2c(-c3ccc(O)cc3)oc3cc(O)cc(O)c3c2=O)[C@H](OC(=O)/C=C\c2ccc(O)cc2)[C@H](OC(=O)/C=C/c2ccc(O)cc2)[C@H]1O show?
Result: 2.3

Task: Suppose we examine the molecule C=C(C)[C@@H]1CC[C@]2(CO)CC[C@]3(C)[C@H](CC[C@@H]4[C@@]5(C)CC[C@H](O)[C@@](C)(COC(=O)/C=C/c6ccc(O)cc6)[C@@H]5CC[C@]43C)[C@@H]12 ; what selectivity ratio value has been reported?
Result: 33

Task: Bench note: what selectivity ratio did COc1cc(O)c(-c2c(C)cc(O)c3c2C(=O)c2cccc(O)c2C3=O)c(O)c1C(C)=O show?
Result: 6.5

Task: Which value of selectivity ratio has been reported for C=C(C)[C@@H]1CC[C@]2(CO)CC[C@]3(C)[C@H](CC[C@@H]4[C@@]5(C)CC[C@H](OC(=O)/C=C/c6ccc(O)cc6)[C@@](C)(CO)[C@@H]5CC[C@]43C)[C@@H]12 (stereo in doubt) in the records?
Result: 14
